# Assayed Target: UniProt:P21396
# Sequence (P21396 whole entry): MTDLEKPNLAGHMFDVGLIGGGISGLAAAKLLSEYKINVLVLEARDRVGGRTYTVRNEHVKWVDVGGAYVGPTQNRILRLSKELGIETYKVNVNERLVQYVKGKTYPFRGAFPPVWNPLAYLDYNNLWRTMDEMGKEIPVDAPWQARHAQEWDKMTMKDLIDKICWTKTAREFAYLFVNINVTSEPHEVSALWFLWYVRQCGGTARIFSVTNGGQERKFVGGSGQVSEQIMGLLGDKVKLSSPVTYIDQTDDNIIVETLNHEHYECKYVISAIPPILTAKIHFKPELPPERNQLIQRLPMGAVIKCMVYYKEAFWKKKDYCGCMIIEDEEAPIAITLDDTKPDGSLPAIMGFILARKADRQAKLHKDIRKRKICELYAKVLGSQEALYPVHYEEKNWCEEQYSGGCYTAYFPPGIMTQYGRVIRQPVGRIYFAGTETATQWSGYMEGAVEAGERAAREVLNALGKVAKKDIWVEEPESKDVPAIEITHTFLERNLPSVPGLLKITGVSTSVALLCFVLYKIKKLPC
Result Type: Ki (nM)
Unit nM implied. Number only.

Tested system UniProt:P21396; Ki recorded for Oc1ccc(C2CC(c3c4ccccc4cc4ccccc34)=NN2)c(O)c1 (centres undefined) was 95.6

Tested on UniProt:P21396: Cc1ccc(C2CC(c3c4ccccc4cc4ccccc34)=NN2)cc1 (centres undefined) . Observed Ki: 389

Item: O=[N+]([O-])c1cccc(C2CC(c3c4ccccc4cc4ccccc34)=NN2)c1 (centres undefined) | System: UniProt:P21396 | Ki: 43.9

I looked up Oc1ccc(C2CC(c3c4ccccc4cc4ccccc34)=NN2)cc1 (centres undefined) and its Ki for UniProt:P21396 was 385

###

# Assayed Target: Amine oxidase [flavin-containing] A (Homo sapiens, UniProt P21397)
# Sequence (P21397 whole entry): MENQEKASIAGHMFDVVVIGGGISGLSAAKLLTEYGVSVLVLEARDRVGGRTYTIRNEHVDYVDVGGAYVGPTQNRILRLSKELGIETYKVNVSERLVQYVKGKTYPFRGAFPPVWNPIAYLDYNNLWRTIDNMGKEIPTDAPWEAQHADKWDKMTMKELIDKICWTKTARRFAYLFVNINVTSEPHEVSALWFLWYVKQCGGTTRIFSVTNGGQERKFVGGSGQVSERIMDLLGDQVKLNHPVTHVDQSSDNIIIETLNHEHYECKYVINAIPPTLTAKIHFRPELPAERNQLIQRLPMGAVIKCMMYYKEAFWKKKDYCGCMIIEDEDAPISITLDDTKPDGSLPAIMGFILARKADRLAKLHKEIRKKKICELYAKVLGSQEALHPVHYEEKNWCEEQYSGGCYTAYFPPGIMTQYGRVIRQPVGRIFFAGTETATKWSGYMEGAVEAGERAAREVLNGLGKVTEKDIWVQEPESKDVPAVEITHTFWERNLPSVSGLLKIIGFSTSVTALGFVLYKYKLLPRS
# Protocol Text: Competitive inhibition of human recombinant MAO-A after 60 mins using p-tyramine as substrate by spectrophotometry
Result Type: pKi
# pKi = -log10(concentration in molar units)

COc1ccc(C2CC(c3c4ccccc4cc4ccccc34)=NN2)cc1 (stereo not given) = 6.52
c1ccc(C2CC(c3c4ccccc4cc4ccccc34)=NN2)cc1 (stereo not given) = 6.48

Given item Clc1ccc(C2CC(c3c4ccccc4cc4ccccc34)=NN2)cc1 (stereo not given) , the value recorded as its pKi is 6.55

Entry O=[N+]([O-])c1cccc(C2CC(c3c4ccccc4cc4ccccc34)=NN2)c1 (stereo not given) , pKi reported as 7.49

Entry Oc1ccc(C2CC(c3c4ccccc4cc4ccccc34)=NN2)cc1 (stereo not given) — recorded pKi = 6.65

The recorded pKi for Oc1ccc(C2CC(c3c4ccccc4cc4ccccc34)=NN2)c(O)c1 (stereo not given) is 7.09

Documented pKi of O=[N+]([O-])c1ccc(C2CC(c3c4ccccc4cc4ccccc34)=NN2)cc1 (stereo not given) : 7.77

Sample Cc1ccc(C2CC(c3c4ccccc4cc4ccccc34)=NN2)cc1 (stereo not given) ; pKi observed: 6.60

Form field pKi, entry Oc1ccccc1C1CC(c2c3ccccc3cc3ccccc23)=NN1 (stereo not given) : 7.16

Entry c1ccc(C2CC(c3c4ccccc4cc4ccccc34)=NN2)nc1 (stereo not given) — recorded pKi = 6.69

###

Target sequence: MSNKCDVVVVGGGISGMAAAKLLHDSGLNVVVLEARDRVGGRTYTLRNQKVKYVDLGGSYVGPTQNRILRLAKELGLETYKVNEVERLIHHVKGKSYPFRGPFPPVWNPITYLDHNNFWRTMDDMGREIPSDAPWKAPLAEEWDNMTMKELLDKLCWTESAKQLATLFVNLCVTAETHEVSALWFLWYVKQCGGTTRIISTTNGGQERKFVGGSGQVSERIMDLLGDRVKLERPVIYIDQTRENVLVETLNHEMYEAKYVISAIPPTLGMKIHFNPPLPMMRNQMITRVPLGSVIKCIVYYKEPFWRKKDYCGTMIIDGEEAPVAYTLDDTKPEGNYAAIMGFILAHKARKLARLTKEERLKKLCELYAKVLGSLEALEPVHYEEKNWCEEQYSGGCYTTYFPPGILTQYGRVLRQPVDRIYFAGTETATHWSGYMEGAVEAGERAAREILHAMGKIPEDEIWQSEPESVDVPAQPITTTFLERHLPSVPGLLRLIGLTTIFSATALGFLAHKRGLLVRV
# pKi values compiled below
Entry type: numeric. Quantity: pKi, the -log10 of concentration in molar units.

Worked examples, 4 compounds total:
Oc1ccc(C2CC(c3c4ccccc4cc4ccccc34)=NN2)c(O)c1 (stereo not given) = 8.26
O=[N+]([O-])c1cccc(C2CC(c3c4ccccc4cc4ccccc34)=NN2)c1 (stereo not given) = 9.51
Oc1ccc(C2CC(c3c4ccccc4cc4ccccc34)=NN2)cc1 (stereo not given) = 8.12
Cc1ccc(C2CC(c3c4ccccc4cc4ccccc34)=NN2)cc1 (stereo not given) = 8.45

Attention now shifts to the item below.
response.value for c1ccc(C2CC(c3c4ccccc4cc4ccccc34)=NN2)nc1 (stereo not given) (field: pKi) = 8.24
